# test-target: T1, CRBN, Q96SW2;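 note: pooled lentiviral library of zinc finger degron-EGFP fusions in mCherry-positive Jurkat cells, FACS-sorted after compound exposure, with degron abundance counted by next-generation sequencing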
# T1 chain: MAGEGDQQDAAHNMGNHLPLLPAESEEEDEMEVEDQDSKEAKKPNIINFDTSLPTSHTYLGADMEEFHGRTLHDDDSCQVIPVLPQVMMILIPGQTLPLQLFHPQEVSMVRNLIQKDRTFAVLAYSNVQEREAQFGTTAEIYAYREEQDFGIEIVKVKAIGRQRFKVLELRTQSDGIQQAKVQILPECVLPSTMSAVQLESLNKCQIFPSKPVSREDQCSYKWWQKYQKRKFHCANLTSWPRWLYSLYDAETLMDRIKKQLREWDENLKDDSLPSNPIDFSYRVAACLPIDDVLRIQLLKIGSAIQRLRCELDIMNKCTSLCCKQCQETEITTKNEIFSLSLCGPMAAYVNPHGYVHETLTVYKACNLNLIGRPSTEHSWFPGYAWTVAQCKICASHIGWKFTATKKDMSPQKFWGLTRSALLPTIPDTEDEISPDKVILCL
# assay-name: log2 fold change of degron read counts, EGFP-low vs EGFP+ sorted cells (limma voom), compound-induced degradation; higher = more compound-induced degradation of the degron-EGFP fusion; degrons are variants of IKZF1/3 zinc finger 2; compound dose not given here
# recorded-conditions: Jurkat; 18 h; compound: compound 22 (5-morpholino-thalidomide)
Whole data set: some 8,300 sequences, median “log2 fold change of degron read counts, EGFP-low vs EGFP+ sorted cells (limma voom), compound-induced degradation” near -1.1, cut for the highest 2% near 3.2. The list comes from a sample in which the highest values are over-represented; it also holds close analogues and randomly drawn sequences.
measured-quantity: log2 fold change of degron read counts
Lab note: jot the number down without any unit.

Field: example entries. Status: answers known.
- seq-text: "FACEICGALFTQKGNLLRHIKL [46F_47A_49E_50I_52G_53A_54L_55F_67L_, Q9UKT9]"
  endpoint-result: 0.321
- seq-text: "FMCEICGAVFTQKGNLLRHIKL [46F_47M_49E_50I_52G_53A_54V_55F_67L_, Q9UKT9]"
  endpoint-result: -0.16
- seq-text: "FLCPICGAGFTQKGNLLRHIKL [46F_47L_49P_50I_52G_53A_54G_55F_67L_, Q9UKT9]"
  endpoint-result: 0.187
- seq-text: "FLCPICGAAFTQKGNLLRHIKL [46F_47L_49P_50I_52G_53A_54A_55F_67L_, Q9UKT9]"
  endpoint-result: 0.494
- seq-text: "FTCEICGAVFTQKGNLLRHIKL [46F_47T_49E_50I_52G_53A_54V_55F_67L_, Q9UKT9]"
  endpoint-result: 1.97

INPUT: Assign log2 fold change of degron read counts to the following record: FLCEICGALFTQKGNLLRHIKL [46F_47L_49E_50I_52G_53A_54L_55F_67L_, Q9UKT9]
OUTPUT: -1.27

INPUT: Input FSCNQCGRCFTQKGNLLRHIKL [46F_47S_49N_50Q_52G_53R_54C_55F_67L_, Q9UKT9] , output reported log2 fold change of degron read counts.
OUTPUT: -2.88

INPUT: Quickly give me recorded log2 fold change of degron read counts for FHCPICGAMFTQKGNLLRHIKL [46F_47H_49P_50I_52G_53A_54M_55F_67L_, Q9UKT9]
OUTPUT: 1.9

INPUT: Answer with the recorded log2 fold change of degron read counts for the sequence listed here: FGCEICGAVFTQKGNLLRHIKL [46F_47G_49E_50I_52G_53A_54V_55F_67L_, Q9UKT9]
OUTPUT: 2.6

INPUT: Return reported log2 fold change of degron read counts. Input sequence: FACPICGAGFTQKGNLLRHIKL [46F_47A_49P_50I_52G_53A_54G_55F_67L_, Q9UKT9]
OUTPUT: 1.67

INPUT: Determine from records and report log2 fold change of degron read counts for FQCPICGAMFTQKGNLLRHIKL [46F_47Q_49P_50I_52G_53A_54M_55F_67L_, Q9UKT9]
OUTPUT: 2.56

INPUT: # return recorded log2 fold change of degron read counts for entry FSCPICGAGFTQKGNLLRHIKL [46F_47S_49P_50I_52G_53A_54G_55F_67L_, Q9UKT9]
OUTPUT: 1.27

INPUT: Return value of log2 fold change of degron read counts for input FLCEVCGAYFTQKGNLLRHIKL [46F_47L_49E_50V_52G_53A_54Y_55F_67L_, Q9UKT9] , no commentary.
OUTPUT: -1.51

INPUT: Check the records and state log2 fold change of degron read counts for FECEICGAVFTQKGNLLRHIKL [46F_47E_49E_50I_52G_53A_54V_55F_67L_, Q9UKT9]
OUTPUT: -0.764

INPUT: Consider the sequence FCCEICGHIFTQKGNLLRHIKL [46F_47C_49E_50I_52G_53H_54I_55F_67L_, Q9UKT9] . State its measured log2 fold change of degron read counts.
OUTPUT: -2.44

INPUT: Complete the entry with log2 fold change of degron read counts for FACPICGAAFTQKGNLLRHIKL [46F_47A_49P_50I_52G_53A_54A_55F_67L_, Q9UKT9]
OUTPUT: 2.93

INPUT: Tell me its log2 fold change of degron read counts given FFCNQCGHGFTQKGNLLRHIKL [46F_47F_49N_50Q_52G_53H_54G_55F_67L_, Q9UKT9] as the entry.
OUTPUT: -2.15

INPUT: Given FQCPICGAGFTQKGNLLRHIKL [46F_47Q_49P_50I_52G_53A_54G_55F_67L_, Q9UKT9] , respond with its log2 fold change of degron read counts.
OUTPUT: 2.05
